B1: Twister Ribozyme (parent)
chain: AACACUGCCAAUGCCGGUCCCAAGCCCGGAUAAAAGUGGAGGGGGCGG

Variants of: B1
Assay: self-cleavage, relative activity (ratio to wild type); higher = more cleavage; co-transcriptional

mutant_designation	self-cleavage
C8U G29A	0.516
A22U G29C	0.604
C5A G13U	0.0864
G17C A32C	0.0792
C27G A32G	0.0742
A22C A35C	1.01
G16U G48A	0.898
A1U G39C	0.0764
A4U G16C	0.0898
C3U C20U	0.308
C25U	0.881
U6A A11C	0.61
C15G G16C	0.305
C8A G16C	0.0923
A11C A32U	0.831
C5U A32C	0.887
A4C G41C	0.0877
G7U C8U	0.0467
U31G A34G	0.894
U6A A40G	0.178
G41A G47C	0.2
C9U A23G	0.0717
C25G A34U	0.158
G13A G48U	0.705
C14A G42C	0.363
A4U G28U	0.116
G28A G44C	0.718
G24A U37C	0.067
A2U U37A	0.202
C19U U31C	0.971
C21U G48U	0.125
A30C A32U	0.9
U6C G24U	0.0929
C19G G36A	0.101
G13A G47A	0.457
C15G G38C	0.0527
U18C C19A	0.0644
G36A G45C	0.256
C8A G45A	0.203
A2U G16A	0.256
